Here, each record is paired with measured koff data.
- experimental target: T1, recombinant rat CTGF protein (R&D Systems) (rat, UniProt Q9R1E9 25-347)
- T1 construct: Bought; also called rCTGF
- T1 sequence: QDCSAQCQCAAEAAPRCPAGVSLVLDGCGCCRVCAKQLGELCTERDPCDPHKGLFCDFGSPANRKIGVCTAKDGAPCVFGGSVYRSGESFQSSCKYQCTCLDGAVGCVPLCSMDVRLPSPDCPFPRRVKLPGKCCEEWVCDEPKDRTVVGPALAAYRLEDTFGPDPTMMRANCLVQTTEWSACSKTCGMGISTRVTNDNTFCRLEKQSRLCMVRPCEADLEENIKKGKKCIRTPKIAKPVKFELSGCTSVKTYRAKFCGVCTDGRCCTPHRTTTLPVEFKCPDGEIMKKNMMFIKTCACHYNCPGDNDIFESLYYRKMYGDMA
- measurement notes: SPR (Biacore)
Value expressed in s⁻¹; do not type the unit.

Worked examples follow.
Incoming: Query (binder): lipocalin mutein of SEQ ID NO: 9 (designed binder, Parent hNGAL mutein; also called hNGAL mutein) QDSTSDLIPAPPLSKVPLQQNFQDNQFHGKWYVVGLAGNKILRIDKQPAKMFATIYELKEDKSYDVTSVRFEARSCSYTIKTFVPGSQPGEFTAGNIKSAPGQTSTLVRVVSTNYNQHAMVFFKHVSQNRETFVITLYGRTKELTSELKENFIRFSKSLGLPENHIVFPVPIDQCIDGSAWSHPQFEK ; field requested: koff
Outgoing: 0.00169

Incoming: Query (binder): lipocalin mutein of SEQ ID NO: 22 (designed binder, also called hNGAL mutein; not shown: C-terminal His-tag) QDSTSDLIPAPPLSKVPLQQNFQDNQFQGKWYVVGIAGNAILRVDKQPAKMFATIYELKEDKSYDVTSVRFEAKSCVYTIKTFVPGSQPGEFTAGNIKSAPGQTSTLVRVVSTNYNQHAMVFFKHVSQNREIFVITLYGRTKELTSELKENFIRFSKSLGLPENHIVFPVPIDQCIDG ; field requested: koff
Outgoing: 4.01e-05

Incoming: Query (binder): lipocalin mutein of SEQ ID NO: 29 (designed binder, Parent hNGAL mutein; also called hNGAL mutein) QDSTSDLIPAPPLSKVPLQQNFQDNQFHGKWYVVGWAGNIKLREDKDPFKMSATIYELKEDKSYNVTEVVFEQKKCHYIIKTFVPGSQPGEFTLGDIKSPPGETSSLVRVVSTNYNQHAMVFFKKVFQNREFFWITLYGRTKELTSELKENFIRFSKSLGLPENHIVFPVPIDQCIDGSAWSHPQFEK ; field requested: koff
Outgoing: 0.00317

Incoming: Query (binder): lipocalin mutein of SEQ ID NO: 15 (designed binder, also called hNGAL mutein; not shown: C-terminal His-tag) QDSTSDLIPAPPLSKVPLQQNFQDNQFQGKWYVVGLAGNAILREDKQPAKMFATIYELKEDKSYDVTSVRFEAKSCKYTIKTFVPGSQPGEFTAGYIKSAPGQTSTLVRVVSTNYNQHAMVFFKHVTQNREIFVITLYGRTKELTSELKENFIRFSKSLGLPENHIVFPVPIDQCIDG ; field requested: koff
Outgoing: 0.000114

---
Incoming: Query (binder): lipocalin mutein of SEQ ID NO: 7 (designed binder, Parent hNGAL mutein; also called hNGAL mutein) QDSTSDLIPAPPLSKVPLQQNFQDNQFHGKWYVVGLAGNYGLRTDKRPSKMFATIYELKEDKSYDVTSVRFEQERCHYTIRTFVPGSQPGEFTTGSIKSRPGQTSSLVRVVSTNYNQHAMVFFKSVIQNREYFAITLYGRTKELTSELKENFIRFSKSLGLPENHIVFPVPIDQCIDGSAWSHPQFEK ; field requested: koff
Outgoing: 0.00754

Incoming: Query (binder): lipocalin mutein of SEQ ID NO: 5 (designed binder, also called hNGAL mutein; not shown: C-terminal His-tag) QDSTSDLIPAPPLSKVPLQQNFQDNQFQGKWYVVGKAGNALREDKEPPKMWATIYELKEDKSYDVTHVHFLTKKCKYLIDTFVPGSQPGEFTIGAIKSGPGLTSPLVRVVSTNYNQHAMVFFKWVSQNREWFTITLYGRTKELTSELKENFIRFSKSLGLPENHIVFPVPIDQCIDG ; field requested: koff
Outgoing: 0.000362

Just for reference, patent US20240228562A1 is where these values come from.
